- Test system: Klebsiella aerogenes DSM 30053
- assay.overview: fold change of Cadaverine concentration vs plate DMSO controls (fold change (ratio)); higher = more amine produced, active = hit call of the paper (significant change in both replicates, either direction)
- study.conditions: incubation time: 27 h, anaerobic, 37 °C
Structures can show the parent of a compound that is named as a salt.
measurement.kind: fold change of Cadaverine concentration

• Clc1ccc(Nc2nnc(Cc3ccncc3)c3ccccc23)cc1 [Vatalanib] (20 µM) = 1.02
• CN(C)c1ccc2nc3ccc(=[N+](C)C)cc-3sc2c1 [Methylene blue] (20 µM) = 0.989
• CCc1oc2ccccc2c1C(=O)c1cc(Br)c(O)c(Br)c1 [Benzbromarone] (20 µM) = 0.998
• Cc1cccc(C)c1NC(=O)CC12CCCN1CCC2 [Pilsicainide Hydrochloride] (20 µM) = 0.98
• Cn1c(=O)c2c(ncn2CC(O)CO)n(C)c1=O (stereo not given) [Diprophylline] (20 µM) = 1
• CC1(C)S[C@@H]2[C@H](NC(=O)C3(N)CCCCC3)C(=O)N2[C@H]1C(=O)O [Cyclacillin] (20 µM) = 1
• CC(C)c1nc(N(C)S(C)(=O)=O)nc(-c2ccc(F)cc2)c1/C=C/[C@@H](O)C[C@@H](O)CC(=O)O [Rosuvastatin] (20 µM) = 0.989
• C[C@H]1O[C@@H](O[C@H]2[C@@H](O)C[C@H](O[C@H]3[C@@H](O)C[C@H](O[C@H]4CC[C@@]5(C)[C@H](CC[C@@H]6[C@@H]5C[C@@H](O)[C@]5(C)[C@@H](C7=CC(=O)OC7)CC[C@]65O)C4)O[C@@H]3C)O[C@@H]2C)C[C@H](O)[C@@H]1O [Digoxin] (20 µM) = 0.991
• C#C[C@]1(O)CC[C@H]2[C@@H]3CCc4cc(O)ccc4[C@H]3CC[C@@]21C [Ethinylestradiol] (20 µM) = 1.01
• CC(C)(CO)[C@@H](O)C(=O)NCCC(=O)NCCSSCCNC(=O)CCNC(=O)[C@H](O)C(C)(C)CO [D-Pantethine] (20 µM) = 1
• CC(N)CCCC(C)(C)O (stereo not given) [Heptaminol hydrochloride] (20 µM) = 0.994
• Nc1ccc(S(=O)(=O)Nc2ncccn2)cc1 [Sulfadiazine] (20 µM) = 1.01
• C[C@@H](O)[C@H]1C(=O)N2C(C(=O)O)=C(SCCNC=N)C[C@H]12 [Imipenem] (20 µM) = 1
• C=CCN1CCCC1CNC(=O)c1cc2nn[nH]c2cc1OC (stereo not given) [Alizapride hydrochloride] (20 µM) = 0.99
• CN1CCN2c3ncccc3Cc3ccccc3C2C1 (stereo not given) [Mirtazapine] (20 µM) = 1.02

###

// reported growth for each item listed
- Tested on: Clostridium sporogenes DSM 1664
- assay.overview: growth (OD595) fold change vs plate DMSO controls (fold change (ratio)); higher = more growth
- study.conditions: incubation time: 27 h, anaerobic, 37 °C
Counter-ions that a name gives are not always drawn.
measurement.kind: growth

* CN(C/C=C/c1ccccc1)Cc1cccc2ccccc12 [Naftifine hydrochloride] (20 µM) | 1.08
* COc1ccc(C2C(=O)c3ccccc3C2=O)cc1 [Anisindione] (20 µM) | 0.917
* OC(CCN1CCCC1)(c1ccccc1)C1CCCCC1 (stereo not given) [Procyclidine hydrochloride] (20 µM) | 0.903
* COc1ccc2[nH]cc(CCNC(C)=O)c2c1 [Melatonin] (20 µM) | 0.916
* C#C[C@]1(O)CC[C@H]2[C@@H]3CCC4=C(CCC(=O)C4)[C@H]3CC[C@@]21C [Norethynodrel] (20 µM) | 0.978
* OCCN1CCN(CCCN2c3ccccc3Sc3ccc(C(F)(F)F)cc32)CC1 [Fluphenazine dihydrochloride] (20 µM) | 1.03
* CCOC(=O)[C@H](CCc1ccccc1)N[C@@H](C)C(=O)N1C(=O)N(C)C[C@H]1C(=O)O [Imidapril hydrochloride] (20 µM) | 1.19
* C=C(CC)C(=O)c1ccc(OCC(=O)O)c(Cl)c1Cl [Ethacrynic acid] (20 µM) | 1.11
* C=C1c2c(Cl)ccc(O)c2C(O)=C2C(=O)[C@]3(O)C(O)=C(C(N)=O)C(=O)[C@@H](N(C)C)[C@@H]3[C@@H](O)[C@H]12.O=C(O)c1cc(S(=O)(=O)O)ccc1O [Meclocycline sulfosalicylate] (20 µM) | 0.0138
* CN(C)CCCN1c2ccccc2Sc2ccccc21 [Promazine hydrochloride] (20 µM) | 1.02
* Nc1ncnc2c1ncn2[C@@H]1O[C@H](COP(=O)(O)O)[C@@H](O)[C@H]1O [5'-Adenylic acid] (50 µM) | 0.902
* COc1ccc2c3c1O[C@H]1C[C@@H](O)C=C[C@@]31CCN(C)C2 [Galanthamine hydrobromide] (20 µM) | 0.93
* C=CCOc1ccc(CC(=O)O)cc1Cl [Alclofenac] (20 µM) | 0.943
* C#C[C@]1(O)CC[C@H]2[C@@H]3[C@H](C)CC4=C(CCC(=O)C4)[C@H]3CC[C@@]21C [Tibolone] (20 µM) | 1.01
* C/C=C(/C(=C/C)c1ccc(O)cc1)c1ccc(O)cc1 [Dienestrol] (20 µM) | 1.09

###

# fold change of Cadaverine concentration per entry
- System: Escherichia coli IAI1
- assay.overview: fold change of Cadaverine concentration vs plate DMSO controls (fold change (ratio)); higher = more amine produced, active = hit call of the paper (significant change in both replicates, either direction)
- study.conditions: incubation time: 27 h, anaerobic, 37 °C
Counter-ions that a name gives are not always drawn.
measurement.kind: fold change of Cadaverine concentration

• COC(=O)C1=C(C)NC(C)=C(C(=O)OC(C)C)C1c1cccc2nonc12 (stereo not drawn) [Isradipine] (20 µM) = 0.991
• COC(=O)[C@H](Cc1ccccc1)NC(=O)[C@H](CC(=O)O)NCCCc1ccc(OC)c(O)c1 [Advantame] (50 µM) = 1.04
• O=C(O)CNC(=O)C(CS)Cc1ccccc1 (stereo not drawn) [Thiorphan] (20 µM) = 0.956
• N=C(N)Nc1ccc(C(=O)Oc2ccc3cc(C(=N)N)ccc3c2)cc1 [Nafamostat Mesylate] (20 µM) = 1.04
• COC(=O)C1=C(C)NC(C)=C(C(=O)O[C@H]2CCN(Cc3ccccc3)C2)[C@H]1c1cccc([N+](=O)[O-])c1 [Barnidipine Hydrochloride] (20 µM) = 1.02
• O=c1n(CCCN2CCN(c3cccc(Cl)c3)CC2)nc2ccccn12 [Trazodone hydrochloride] (20 µM) = 0.982
• CCOC(=O)NNc1nncc2ccccc12 [Todralazine hydrochloride] (20 µM) = 1.04
• N=C(N)NC(=N)NCCc1ccccc1 [Phenformin hydrochloride] (20 µM) = 1.07

###

- System: Klebsiella aerogenes DSM 30053
- assay.overview: fold change of Putrescine concentration vs plate DMSO controls (fold change (ratio)); higher = more amine produced, active = hit call of the paper (significant change in both replicates, either direction)
- study.conditions: incubation time: 27 h, anaerobic, 37 °C
Where a name gives a salt, the structure may show the parent alone.
measurement.kind: fold change of Putrescine concentration

* CCCNC(C)C(=O)Nc1ccccc1C (centres undefined) [Prilocaine hydrochloride] (20 µM) | 1.02
* CC(C)Cc1ccc([C@H](C)C(=O)O)cc1 [(S,+) Ibuprofen] (20 µM) | 1.03
* CN1CCCCC1CCN1c2ccccc2Sc2ccc([S+](C)[O-])cc21 (centres undefined) [Mesoridazine besylate] (20 µM) | 1.02
* Cc1ccccc1C(OCCN(C)C)c1ccccc1 (centres undefined) [Orphenadrine hydrochloride] (20 µM) | 0.895

###

- Test system: Clostridium sporogenes DSM 1664
- assay.overview: fold change of Tryptamine concentration vs plate DMSO controls (fold change (ratio)); higher = more amine produced, active = hit call of the paper (significant change in both replicates, either direction)
- study.conditions: incubation time: 27 h, anaerobic, 37 °C
Counter-ions that a name gives are not always drawn.
Note to self: values exactly at 1 are Y. So fold change of Tryptamine concentration at or above 1 is Y, below is N.

* CCCCc1oc2ccccc2c1C(=O)c1cc(I)c(OCCN(CC)CC)c(I)c1 [Amiodarone hydrochloride] (20 µM) | Y
* OC[C@@H](O)[C@H](O)[C@@H](O)CO [Xylitol] (50 µM) | Y
* CN(C)CCC(c1ccc(Cl)cc1)c1ccccn1 (stereo not drawn) [Chlorpheniramine maleate] (20 µM) | Y
* Brc1c(NC2=NCCN2)ccc2nccnc12 [Brimonidine L-tartrate] (20 µM) | Y
* CC(C)NCC(O)COc1cccc2[nH]c3ccccc3c12 (stereo not drawn) [Carazolol] (20 µM) | N
* Nc1ccccc1S(N)(=O)=O [o-Sulfanilamide] (20 µM) | N
* CC(COc1ccccc1)NC(C)C(O)c1ccc(O)cc1 (stereo not drawn) [Isoxsuprine hydrochloride] (20 µM) | Y
* C[N+](C)(C)C[C@H](O)CC(=O)[O-] [Levocarnitine] (20 µM) | N
* Nc1c2c(nc3ccccc13)CCCC2 [Tacrine hydrochloride] (20 µM) | Y
* O=C(NCC(O)CO)c1c(I)c(C(=O)NCC(O)CO)c(I)c(N(CCO)C(=O)CO)c1I (stereo not drawn) [Ioversol] (20 µM) | Y
* COc1cc([S+](C)[O-])ccc1-c1nc2cccnc2[nH]1 (stereo not drawn) [Sulmazole] (20 µM) | N
* COc1cc(C(=O)N2CCOCC2)cc(OC)c1OC [Trimetozine] (20 µM) | Y
* Cc1cn[nH]c1 [Fomepizole] (20 µM) | Y
